Molecular target: influenza virus A/WSN/33 NA-I427M (Influenza A virus, UniProt P03470, I411M)
Conditions: read-out: IC50, NA-I427M
READOUT LABEL: pIC50
A value of pIC50 is the negative decimal logarithm of a concentration given in moles per litre.

Prompt: Kindly state the measured pIC50 obtained for CC(=O)N[C@H]1[C@H]([C@H](O)[C@H](O)CO)OC(C(=O)O)=C[C@@H]1O [DANA, reference compound] with influenza virus A/WSN/33 NA-I427M (Influenza A virus, UniProt P03470, I411M).
Response: 5.66

====

Exercise: for every item that follows, state its recorded FC, NA-H274Y.
Target: influenza virus A/WSN/33 NA-H274Y (Influenza A virus, UniProt P03470, H259Y)
Assay type: biochemical, influenza A virus A/WSN/1933 (H1N1)
Provide a numeric answer; units are not to be included.

Prompt: Return reported FC, NA-H274Y; argument: CC(=O)N[C@H]1[C@H]([C@H](O)[C@H](O)CO)OC(C(=O)O)=C[C@@H]1O [DANA, reference compound]
Response: 1

Prompt: Queued: Cc1cc(N=Nc2ccc(N=Nc3c(O)c(S(=O)(=O)O)cc4cc(S(=O)(=O)O)ccc34)cc2C)ccc1N=Nc1ccc2cc(S(=O)(=O)O)cc(S(=O)(=O)O)c2c1
Response: 3

Prompt: Queued: Cc1ccccc1/N=N/c1ccc(/N=N/c2c(O)ccc3cc(S(=O)(=O)O)cc(S(=O)(=O)O)c23)c(C)c1
Response: 3

Prompt: Queued: O=S(=O)(O)c1ccc2c(/N=N/c3ccc(Sc4ccc(/N=N/c5c(O)ccc6cc(S(=O)(=O)O)ccc56)cc4)cc3)c(O)ccc2c1
Response: 2
